System: CAL-148
Experiment: normalised viability (% of control), CellTiter-Blue; higher = more viable cells (about 100 = DMSO control)
Conditions: incubation time: 72 h
measuredAttribute: normalised viability (%)

>  <compound>
C[C@]12O[C@H](C[C@]1(O)CO)n1c3ccccc3c3c4c(c5c6ccccc6n2c5c31)CNC4=O [Lestaurtinib] (100 nM)

>  <unit>
%

>  <endpointValue>
104

$$$$
>  <compound>
Cc1cccc(-c2nn3c(c2-c2ccnc4ccc(C(N)=O)cc24)CCC3)n1 (100 nM)

>  <unit>
%

>  <endpointValue>
104

$$$$
>  <compound>
COc1cc(CCc2cc(NC(=O)c3ccc(N4CC(C)NC(C)C4)cc3)n[nH]2)cc(OC)c1 (stereo not drawn) [AZD4547] (100 nM)

>  <unit>
%

>  <endpointValue>
106

$$$$
>  <compound>
O=C(CCBr)N1CCN(C(=O)CCBr)CC1 [Pipobroman] (1000 nM)

>  <unit>
%

>  <endpointValue>
95.5

$$$$
>  <compound>
COc1ccc(-c2cc3c(C)nc(N)nc3n([C@H]3CC[C@H](OCCO)CC3)c2=O)cn1 (1000 nM)

>  <unit>
%

>  <endpointValue>
18.1

$$$$
>  <compound>
Nc1ccccc1NC(=O)c1ccc(CNc2nccc(-c3cccnc3)n2)cc1 [Mocetinostat] (1000 nM)

>  <unit>
%

>  <endpointValue>
65.5

$$$$
>  <compound>
CCC/C=C/C=C/C(=O)O[C@H]1/C(=C/C(=O)OC)C[C@H]2C[C@H]([C@@H](C)O)OC(=O)C[C@H](O)C[C@@H]3C[C@H](OC(C)=O)C(C)(C)[C@](O)(C[C@@H]4C/C(=C/C(=O)OC)C[C@H](/C=C/C(C)(C)[C@]1(O)O2)O4)O3 [Bryostatin 1] (10 nM)

>  <unit>
%

>  <endpointValue>
98.1

$$$$
>  <compound>
O=C(NC[C@H](O)CO)c1ccncc1Nc1ccc(I)cc1F (1000 nM)

>  <unit>
%

>  <endpointValue>
77.3

$$$$

====

Reported normalised response values are given for each entry in this list.
Test system: HCC1599
Assay: normalised response (% of control), CellTox Green; higher = less cell death (100 = DMSO, 0 = benzethonium chloride kill control)
Conditions: incubation time: 72 h
measuredAttribute: normalised response (%)

>  <molecule>
Nc1cccc2c1CN(C1CCC(=O)NC1=O)C2=O (stereo not drawn) [Lenalidomide] (10000 nM)

>  <unit>
%

>  <endpointValue>
103

$$$$
>  <molecule>
O=S(=O)(c1cccc2cnccc12)N1CCCNCC1 [Fasudil] (5000 nM)

>  <unit>
%

>  <endpointValue>
103

$$$$
>  <molecule>
C[C@]12C=CC(=O)C=C1CC[C@@H]1[C@@H]2[C@@H](O)C[C@@]2(C)[C@H]1CC[C@]2(O)C(=O)CO [Prednisolone] (10000 nM)

>  <unit>
%

>  <endpointValue>
97.9

$$$$
>  <molecule>
CO[C@@H](C(=O)N1Cc2[nH]nc(NC(=O)c3ccc(N4CCN(C)CC4)cc3)c2C1)c1ccccc1 [Danusertib] (100 nM)

>  <unit>
%

>  <endpointValue>
102

$$$$
>  <molecule>
O=S(=O)(c1cccc2cnccc12)N1CCCNCC1 [Fasudil] (50000 nM)

>  <unit>
%

>  <endpointValue>
80.3

$$$$
>  <molecule>
COc1cc(CCc2cc(NC(=O)c3ccc(N4CC(C)NC(C)C4)cc3)n[nH]2)cc(OC)c1 (stereo not drawn) [AZD4547] (10 nM)

>  <unit>
%

>  <endpointValue>
93.9

$$$$
>  <molecule>
CCCCC/C=C/C=C1/C(=O)C=C[C@@H]1C/C=C\CCCC(=O)O [15D-PGJ2] (80 nM)

>  <unit>
%

>  <endpointValue>
109

$$$$
>  <molecule>
c1cc(CN2CCCNCCNCCCNCC2)ccc1CN1CCCNCCNCCCNCC1 [Plerixafor] (1000 nM)

>  <unit>
%

>  <endpointValue>
88.8

$$$$

====

System: HCC1599
Assay: drug sensitivity score (DSS), CellTox Green (DSS (AUC-based score)); higher = stronger drug effect (viability inhibition or cytotoxicity); extreme values may be limits of the assay
Conditions: incubation time: 72 h
Reported drug sensitivity score values are given for each entry in this list.

>  <molecule>
Cn1cc(CNCC2CCN(c3ncc(C(=O)NO)cn3)CC2)c2ccccc21

>  <drug sensitivity score>
1.48

$$$$
>  <molecule>
CCC/C=C/C=C/C(=O)O[C@H]1/C(=C/C(=O)OC)C[C@H]2C[C@H]([C@@H](C)O)OC(=O)C[C@H](O)C[C@@H]3C[C@H](OC(C)=O)C(C)(C)[C@](O)(C[C@@H]4C/C(=C/C(=O)OC)C[C@H](/C=C/C(C)(C)[C@]1(O)O2)O4)O3

>  <drug sensitivity score>
0

$$$$
>  <molecule>
CC(=O)OC[C@H]1O[C@@H]([S-])[C@H](OC(C)=O)[C@@H](OC(C)=O)[C@@H]1OC(C)=O.CCP(CC)CC.[Au+]

>  <drug sensitivity score>
0

$$$$
>  <molecule>
Nc1cccc2c1CN(C1CCC(=O)NC1=O)C2=O (stereo unspecified) [Lenalidomide]

>  <drug sensitivity score>
0

$$$$
>  <molecule>
COc1nc(N)nc2c1ncn2[C@@H]1O[C@H](CO)[C@@H](O)[C@@H]1O

>  <drug sensitivity score>
0

$$$$
>  <molecule>
C[C@]12C=CC(=O)C=C1CC[C@@H]1[C@@H]2[C@@H](O)C[C@@]2(C)[C@H]1CC[C@]2(O)C(=O)CO

>  <drug sensitivity score>
0

$$$$
>  <molecule>
Cc1ccc(Nc2nccc(N(C)c3ccc4c(C)n(C)nc4c3)n2)cc1S(N)(=O)=O

>  <drug sensitivity score>
0

$$$$
>  <molecule>
CC[C@@]1(O)C(=O)OCc2c1cc1n(c2=O)Cc2cc3c(CN(C)C)c(O)ccc3nc2-1

>  <drug sensitivity score>
2.71

$$$$
>  <molecule>
c1cc(CN2CCCNCCNCCCNCC2)ccc1CN1CCCNCCNCCCNCC1

>  <drug sensitivity score>
0

$$$$
>  <molecule>
CNC(=O)c1cc(Oc2ccc(NC(=O)Nc3ccc(Cl)c(C(F)(F)F)c3)cc2)ccn1

>  <drug sensitivity score>
0

$$$$
>  <molecule>
O=C(NC[C@H](O)CO)c1ccncc1Nc1ccc(I)cc1F

>  <drug sensitivity score>
0

$$$$

====

System: HDQ-P1
Experiment: normalised response (% of control), CellTiter-Glo; higher = more viable cells (100 = DMSO, 0 = benzethonium chloride kill control)
Conditions: incubation time: 72 h
Reported normalised response values are given for each entry in this list.
measuredAttribute: normalised response (%)

>  <compound>
CC(C)N(CCCNC(=O)Nc1ccc(C(C)(C)C)cc1)C[C@H]1O[C@@H](n2cc(Br)c3c(N)ncnc32)[C@H](O)[C@@H]1O [SGC0946] (100 nM)

>  <testedOn>
HDQ-P1

>  <unit>
%

>  <endpointValue>
93

$$$$
>  <compound>
COc1ccc(-c2cc3c(C)nc(N)nc3n([C@H]3CC[C@H](OCCO)CC3)c2=O)cn1 (100 nM)

>  <testedOn>
HDQ-P1

>  <unit>
%

>  <endpointValue>
66.3

$$$$
>  <compound>
O=C(Nc1c[nH]nc1-c1nc2ccc(CN3CCOCC3)cc2[nH]1)NC1CC1 [AT9283] (10 nM)

>  <testedOn>
HDQ-P1

>  <unit>
%

>  <endpointValue>
101

$$$$
>  <compound>
C[C@]12C=CC(=O)C=C1CC[C@@H]1[C@@H]2[C@@H](O)C[C@@]2(C)[C@H]1CC[C@]2(O)C(=O)CO [Prednisolone] (100 nM)

>  <testedOn>
HDQ-P1

>  <unit>
%

>  <endpointValue>
89.3

$$$$
>  <compound>
C[C@]12O[C@H](C[C@]1(O)CO)n1c3ccccc3c3c4c(c5c6ccccc6n2c5c31)CNC4=O [Lestaurtinib] (10 nM)

>  <testedOn>
HDQ-P1

>  <unit>
%

>  <endpointValue>
102

$$$$
>  <compound>
Cc1c(Cn2c(C)nc3c(C(=O)O)cc(N4CCOCC4)cc32)cccc1C(F)(F)F (100 nM)

>  <testedOn>
HDQ-P1

>  <unit>
%

>  <endpointValue>
103

$$$$
>  <compound>
CC[C@@]1(O)C(=O)OCc2c1cc1n(c2=O)Cc2cc3c(CN(C)C)c(O)ccc3nc2-1 [Topotecan] (100 nM)

>  <testedOn>
HDQ-P1

>  <unit>
%

>  <endpointValue>
95.7

$$$$

====

Reported normalised viability values are given for each entry in this list.
Test system: CAL-148
Assay: normalised viability (% of control), CellTiter-Blue; higher = more viable cells (about 100 = DMSO control)
Conditions: 3 nM; incubation time: 72 h

>  <testSmiles>
O=C(CCBr)N1CCN(C(=O)CCBr)CC1

>  <unit>
%

>  <normalised viability>
97.9

$$$$
>  <testSmiles>
Cc1cccc(-c2nn3c(c2-c2ccnc4ccc(C(N)=O)cc24)CCC3)n1

>  <unit>
%

>  <normalised viability>
95.2

$$$$
>  <testSmiles>
C[C@]12O[C@H](C[C@]1(O)CO)n1c3ccccc3c3c4c(c5c6ccccc6n2c5c31)CNC4=O

>  <unit>
%

>  <normalised viability>
98.6

$$$$
>  <testSmiles>
CS(=O)(=O)N1CCN(Cc2cc3nc(-c4cccc5[nH]ncc45)nc(N4CCOCC4)c3s2)CC1

>  <unit>
%

>  <normalised viability>
82.4

$$$$
>  <testSmiles>
O=C(NC[C@H](O)CO)c1ccncc1Nc1ccc(I)cc1F

>  <unit>
%

>  <normalised viability>
86

$$$$
